system.under.test: TdT WT (human, UniProt P04053 1-509)
Sequence (P04053 whole entry): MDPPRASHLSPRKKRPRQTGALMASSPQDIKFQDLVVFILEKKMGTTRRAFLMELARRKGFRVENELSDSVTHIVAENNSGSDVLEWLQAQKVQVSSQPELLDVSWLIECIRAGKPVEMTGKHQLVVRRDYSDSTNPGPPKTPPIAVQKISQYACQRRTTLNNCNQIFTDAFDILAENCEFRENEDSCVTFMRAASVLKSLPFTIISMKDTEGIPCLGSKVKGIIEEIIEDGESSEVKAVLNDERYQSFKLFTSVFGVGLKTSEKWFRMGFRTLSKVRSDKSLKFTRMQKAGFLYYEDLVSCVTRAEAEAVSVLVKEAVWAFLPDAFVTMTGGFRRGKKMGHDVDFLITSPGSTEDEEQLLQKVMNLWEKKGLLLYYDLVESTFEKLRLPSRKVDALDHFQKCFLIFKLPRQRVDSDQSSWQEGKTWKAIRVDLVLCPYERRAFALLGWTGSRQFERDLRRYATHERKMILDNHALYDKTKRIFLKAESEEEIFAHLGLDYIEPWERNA
assay.notes: EMSA; 5 mM MgCl2; Hill h fixed at 2; EMSA: 50 mM Tris-HCl pH 8.0, 5 mM MgCl2, 7% glycerol; 0.5 uM FAM-M44, 0.06-10 uM protein; 10 min at 37 C then 5 min at 0 C; gel at 4 C
recorded.conditions: protein: recombinant; chain copies: 2; label: 5'-FAM; single strand
value.kind: Kd (nM)
Please state the figure in nM; there is no need to write the unit.

Kd in this record for ATGCTATGGATTGATGTGACTAAGGTTGGAATGATGTGAAGAGA (ssDNA) [FAM-M44] : 880
